Experiment: Equilibrium binding constants (K) of corticosteroids with CAPTISOL (Example 46)
Conditions: CAPTISOL (0.04 M); in M-1 (unit assumed)
Quantity Name: Binding Constant- K

Here are 2 molecules together with their reported answers.
CC1(C)O[C@@H]2C[C@H]3[C@@H]4C[C@H](F)C5=CC(=O)C=C[C@]5(C)[C@H]4[C@@H](O)C[C@]3(C)[C@]2(C(=O)CO)O1 [Flunisolide] | 590
C[C@]12CCC(=O)C=C1CC[C@@H]1[C@@H]2[C@@H](O)C[C@@]2(C)[C@H]1CC[C@]2(O)C(=O)CO [Hydrocortisone] | 1932

1: CCC(=O)O[C@]1(C(=O)SCF)[C@H](C)C[C@H]2[C@@H]3C[C@H](F)C4=CC(=O)C=C[C@]4(C)[C@@]3(F)[C@@H](O)C[C@@]21C [Fluticasone propionate, fluticasone propionate]
2: CCC(=O)OCC(=O)[C@@]1(OC(=O)CC)[C@@H](C)C[C@H]2[C@@H]3CCC4=CC(=O)C=C[C@]4(C)[C@@]3(Cl)[C@@H](O)C[C@@]21C [Beclomethasone dipropionate, beclomethasone dipropionate]
3: C[C@]12C=CC(=O)C=C1CC[C@@H]1[C@@H]2[C@@H](O)C[C@@]2(C)[C@H]1CC[C@]2(O)C(=O)CO [Prednisolone]
4: C[C@@H]1C[C@H]2[C@@H]3CCC4=CC(=O)C=C[C@]4(C)[C@@]3(Cl)[C@@H](O)C[C@]2(C)[C@@]1(OC(=O)c1ccco1)C(=O)CCl [Mometasone Fuorate]
Rank the items in ascending order with respect to Binding Constant- K. Rank them, then answer with their labels in that order. 4, 1, 2, 3

---

Assay: Equilibrium binding constants (K) of corticosteroids with SBE6.1-γ-CD (Example 46)
Settings: (SBE)6.1 γ (0.04 M); in M-1 (unit assumed)
Quantity Name: Binding Constant- K

See these solved cases before continuing.
C[C@]12C=CC(=O)C=C1CC[C@@H]1[C@@H]2[C@@H](O)C[C@@]2(C)[C@H]1CC[C@]2(O)C(=O)CO | 1653
CCC(=O)OCC(=O)[C@@]1(OC(=O)CC)[C@@H](C)C[C@H]2[C@@H]3CCC4=CC(=O)C=C[C@]4(C)[C@@]3(Cl)[C@@H](O)C[C@@]21C [Beclomethasone dipropionate, beclomethasone dipropionate] | 2862
CC1(C)O[C@@H]2C[C@H]3[C@@H]4C[C@H](F)C5=CC(=O)C=C[C@]5(C)[C@H]4[C@@H](O)C[C@]3(C)[C@]2(C(=O)CO)O1 [Flunisolide] | 1104

P: CCC(=O)O[C@]1(C(=O)SCF)[C@H](C)C[C@H]2[C@@H]3C[C@H](F)C4=CC(=O)C=C[C@]4(C)[C@@]3(F)[C@@H](O)C[C@@]21C [Fluticasone propionate, fluticasone propionate]
Q: C[C@]12CCC(=O)C=C1CC[C@@H]1[C@@H]2[C@@H](O)C[C@@]2(C)[C@H]1CC[C@]2(O)C(=O)CO [Hydrocortisone]
R: C[C@@H]1C[C@H]2[C@@H]3CCC4=CC(=O)C=C[C@]4(C)[C@@]3(Cl)[C@@H](O)C[C@]2(C)[C@@]1(OC(=O)c1ccco1)C(=O)CCl [Mometasone Fuorate]
Number of molecules to sort: 3. Sort criterion: Binding Constant- K, ascending. Please reply with the labels ordered as requested. Many thanks. R, Q, P
(R: 551, Q: 1430, P: 3338)
